As shown below, each of these molecules has a reported mass density value.
Conditions: 323.15 K; 50000 kPa; Liquid; Vibrating tube method
I only need the number, in kg/m3, no unit after it.

Example entries begin here.
{"CHEM_SMILES": "CCC(C)(C)C", "mass density / kg/m3": 674.2}
{"CHEM_SMILES": "CCCC(C)C", "mass density / kg/m3": 675.91}
{"CHEM_SMILES": "CC(C)C(C)C", "mass density / kg/m3": 684.13}

# next molecule below
Any idea what mass density was measured for CCC(C)CC ?
685.39

---

Conditions: 318.15 K; 100 kPa; Liquid; Vibrating tube method
READOUT_NAME: mass density (kg/m3)
I only need the number, in kg/m3, no unit after it.

Example entries begin here.
{"CHEM_SMILES": "CCC(C)(C)C", "mass density / kg/m3": 625.06}
{"CHEM_SMILES": "CC(C)C(C)C", "mass density / kg/m3": 638.08}
{"CHEM_SMILES": "CCC(C)CC", "mass density / kg/m3": 640.93}

# next compound below
Any idea what mass density was measured for CCCC(C)C ?
629.65

Data origin, for the record: the NIST ThermoML archive (doi:10.1016/j.fluid.2012.11.013)
